# run_description: M. tuberculosis growth inhibition, HTS (AID 449762);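 further: bacterial growth assessed after seven days of incubation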
# condition_notes: M. tuberculosis H37Rv growth inhibition, 7H9 media; at 25 µM; active compounds read high
Among all 330,000 compounds or so, about 1,900 (0.58%) were called active. About 4% were inconclusive and are not listed. The list is a sample of the results. Potency and affinity values are given separately.
recorded_endpoint: inhibition (%)
Supply the numeric figure in %, leaving out any unit text.

In the examples that follow, each entry is paired with its recorded inhibition.
{"columns": ["compound", "inhibition [%]"],
 "data": [
  ["COc1ccc(-c2csc(NC(CO)c3nc4ccccc4n3Cc3ccc(C)cc3)n2)cc1 (stereo unspecified)", 25.6],
  ["Cc1nc(N2CCN(c3ccccn3)CC2)c2c(C)c(C(=O)N3CCN(c4ccccc4F)CC3)sc2n1", 61.9],
  ["NC(=O)c1ccc(-n2c(CCC(=O)O)ccc2-c2cccs2)cc1", -1.94],
  ["CCOc1cc(NC(=S)Nc2ccc(Cl)cc2)c(OCC)cc1NC(C)=O", -3.61],
  ["O=C(NCCc1ccc(Cl)cc1)C1CCCN(c2ncnc3c2nc2n3CCCCC2)C1 (stereo unspecified)", 29.1],
  ["CC(C)=CCC/C(C)=C/CNC(=O)CC1C[C@H](C(=O)N2CCCCC2)[C@@]2(C)c3[nH]c4ccccc4c3CCN2C1=O (stereo partly specified)", -1.03],
  ["COc1ccccc1N(CC(=O)NC(C)(C)C)C(=O)CCC(=O)Nc1nccs1", -0.5],
  ["CCc1cc(=O)oc2cc(C)cc(OC(=O)c3ccco3)c12", 4.45],
  ["O=C(CN(Cc1ccccc1)C(=O)CNS(=O)(=O)c1ccc(F)cc1)NCC1CCCO1 (stereo unspecified)", -5.05],
  ["O=C1OCc2nc3cc4c(cc3c(-c3ccc(F)cc3)c21)OCO4", 3.09]
]}

Qu. Which value of inhibition has been reported for O=C1NCC(c2ccccc2)C1C(=O)N/N=C\c1ccc(-c2cccc(Cl)c2Cl)o1 (stereo unspecified) in the records?
Ans. 24.5

Qu. Fill in the blank: the reported inhibition of `O=C(N/N=C/c1sc(=O)[nH]c1-[n+]1ccccc1)c1ccccc1[O-]` is ____.
Ans. -8.63

Qu. Would you kindly share the measured inhibition for CCOC(=O)N1CCC2(CC1)C(C#N)=C(N)OC1=C2C(=O)CC(C)C1 (stereo unspecified) ?
Ans. -8.64

Qu. Which inhibition value is on record for `C=CCn1c(=NC(=O)c2cc(Cl)sc2Cl)sc2cc(S(N)(=O)=O)ccc21` ?
Ans. -3.02

Qu. Looking for the measured inhibition of `O=C(O)CNC(=S)NCc1ccccc1` , can you help?
Ans. -1.14

Qu. Quick one: inhibition for O=C(OC(C(=O)c1c[nH]c2ccccc12)c1ccccc1)c1cnccn1 (stereo unspecified) ?
Ans. 1.97

Qu. Name the reported inhibition value associated with the compound `C=C(Cl)CSC(=S)N(CC)CC`
Ans. 14

Qu. Item under review: `COc1ccc(/C=C/c2c(-c3ccc(OC)cc3)oc3cccnc23)cc1` . Reported inhibition?
Ans. -6.31

Qu. Endpoint output: inhibition of `O=C1COc2ccc(S(=O)(=O)CCC(=O)N3CCN(c4ccccc4)CC3)cc2N1` . Value?
Ans. -9.62

Qu. Quick check: inhibition of `CCN(CC)c1ccc(C=NCCNS(=O)(=O)c2ccc(C)cc2)cc1` ?
Ans. -5.21

Qu. Need inhibition, item OCCOCCn1c(C(CO)Nc2nc(-c3ccc(F)cc3)cs2)nc2ccccc21 (stereo unspecified)
Ans. 6.37

Qu. May I ask what inhibition has been recorded for CC(C)Oc1ccc(C(CCNCc2ccc(O)cc2)c2ccccc2)cc1 (stereo unspecified) ?
Ans. 62.7

Qu. Quick check: inhibition of `CCOC(=O)c1ccc(NC(=O)Nc2ccc(F)cc2)cc1` ?
Ans. 0.77

Qu. Look up inhibition for this compound: `Cc1nn(S(=O)(=O)c2ccc(C(C)C)cc2)c(C)c1S(=O)(=O)N1CCOCC1`
Ans. -4.31

Qu. May I ask what inhibition has been recorded for `Cc1cc(C)cc(OCC(=O)OCC(=O)c2cc(C)n(C3CC3)c2C)c1` ?
Ans. 54.3

Qu. Consider the compound `COc1ccc(-c2noc(-c3ccco3)n2)cc1OC` and give its measured inhibition.
Ans. -0.61
